Reported IC50 values for a set of compounds
- Target System: TF-VIIa (Homo sapiens, UniProt P08709)
- Construct: 2nM recombinant human factor VIIa; purchased American Diagnostica, Greenwich CT; host or cells: soluble TF made in house in E. coli
- Sequence (P08709 213-466 limits assumed): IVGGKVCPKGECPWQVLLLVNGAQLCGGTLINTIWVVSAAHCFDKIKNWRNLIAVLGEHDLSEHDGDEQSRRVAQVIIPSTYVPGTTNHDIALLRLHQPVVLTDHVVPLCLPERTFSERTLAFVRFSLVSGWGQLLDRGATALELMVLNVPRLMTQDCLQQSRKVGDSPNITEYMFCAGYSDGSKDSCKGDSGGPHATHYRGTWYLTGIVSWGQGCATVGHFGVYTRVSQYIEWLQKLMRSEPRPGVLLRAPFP
- Sequence (P08709 61-212 limits assumed): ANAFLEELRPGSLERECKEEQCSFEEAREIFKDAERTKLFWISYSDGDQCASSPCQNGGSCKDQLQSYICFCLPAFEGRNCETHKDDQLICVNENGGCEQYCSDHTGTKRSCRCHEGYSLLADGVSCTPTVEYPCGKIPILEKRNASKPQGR
- Sequence (P13726 33-251 partner limits assumed): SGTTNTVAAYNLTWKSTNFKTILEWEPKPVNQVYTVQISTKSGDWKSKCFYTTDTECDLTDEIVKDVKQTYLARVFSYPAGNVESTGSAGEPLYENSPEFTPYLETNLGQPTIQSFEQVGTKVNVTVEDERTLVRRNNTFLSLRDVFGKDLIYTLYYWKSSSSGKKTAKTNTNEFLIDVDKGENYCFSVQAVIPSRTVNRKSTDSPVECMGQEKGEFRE
- Test: TF-VIIa Assay
- Assay type: biochemical
- Condition Details: read-out: IC50 or % Inhibition TF-VIIa (30 µM); cells given as a plain number (IC50)
Property Measured: IC50 (µM)

1. N=C(N)c1ccc(CNC(=O)Cn2c(-c3c(Cl)cccc3Cl)c(Cl)nc(NCCc3cccc(Cl)c3)c2=O)cc1 : 1.8
2. CSCC(C(=O)NCc1ccc(C(=N)N)cc1)n1c(-c2ccccc2)c(Cl)nc(NCCc2ccccc2)c1=O (stereo not drawn) : 3.4
3. CC(C)(C)Nc1nc(Cl)c(-c2cccc(N)c2)n(CC(=O)NCc2ccc(C(=N)N)cc2)c1=O : 0.08
4. COc1ccc(CCNc2nc(Cl)c(-c3ccccc3)n(CC(=O)NCc3ccc(C(=N)N)cc3)c2=O)cc1 : 3
5. N=C(N)c1ccc(CNC(=O)Cn2c(-c3ccccc3)c(Cl)nc(NCCC3=CCCCC3)c2=O)cc1 : 27.4
6. CCc1c(Cl)nc(NCCN2CCOCC2)c(=O)n1CC(=O)NCc1ccc(C(=N)N)cc1 : 13
7. N=C(N)c1ccc(CNC(=O)Cn2c(-c3cccc(N)c3)c(Cl)nc(NC3CC3)c2=O)cc1 : 0.02
8. C[C@H](C(=O)NCc1ccc(C(=N)N)cc1)n1c(-c2ccccc2)c(Cl)nc(NCCc2cccc(Cl)c2)c1=O : 2.3
9. C[C@H](C(=O)NCc1ccc(C(=N)N)cc1)n1c(-c2ccccc2)c(Cl)nc(NCCc2ccccc2)c1=O : 1.8
10. N=C(N)c1ccc(CNC(=O)Cn2c(-c3ccc4c(c3)OCO4)c(Cl)nc(NCc3ccccc3)c2=O)cc1 : 18.3
11. N=C(N)c1ccc(CNC(=O)Cn2c(-c3ccc(Cl)cc3)c(Cl)nc(NCCc3cccc(Cl)c3)c2=O)cc1 : 14.6
12. N=C(N)c1ccc(CNC(=O)Cn2c(-c3ccccc3)c(Cl)nc(NCCCCN3CCCC3)c2=O)cc1 : 1
13. CC(C)CNc1nc(Cl)c(-c2cccc(N)c2)n(CC(=O)NCc2ccc(C(=N)N)cc2)c1=O : 0.06
14. N=C(N)c1ccc(CNC(=O)Cn2c(-c3ccccc3Cl)c(Cl)nc(NCc3ccccc3)c2=O)cc1 : 5.2
15. N=C(N)c1ccc(CNC(=O)Cn2c(-c3cccc(Cl)c3)c(Cl)nc(NCCN3CCOCC3)c2=O)cc1 : 7.22

====

- Target System: TF-VIIa (Homo sapiens, UniProt P08709)
- Construct: 2nM recombinant human factor VIIa; purchased American Diagnostica, Greenwich CT; host or cells: soluble TF made in house in E. coli
- Test: TF-VIIa Assay
- Type: biochemical
- Condition Details: cells given as a plain number (IC50); read-out: IC50 or % Inhibition TF-VIIa (30 µM)
pIC50: −log10 of the molar value.
Property Measured: pIC50

1) Cc1cccc(-c2cnc(NCCc3ccccc3)c(=O)n2CC(=O)NCc2ccc(C(=N)N)cc2)c1 [compound 83] : 6.12
2) NCc1ccc(CNC(=O)Cn2c(-c3cccc(N)c3)c(Cl)nc(NC3CCC3)c2=O)cc1 : 5.52
3) COc1ccccc1-c1c(Cl)nc(NCCc2ccccc2)c(=O)n1CC(=O)NCc1ccc(C(=N)N)cc1 : 5.80
4) CC(C)CCNc1nc(Cl)c(-c2ccccc2)n(CC(=O)NCc2ccc(C(=N)N)cc2)c1=O [1522-14] : 6.08
